Tested on: J774
Test: Antiinflammatory activity in mouse J774 cells assessed as inhibition of LPS-induced NO production after 24 hrs by Griess method
Format: functional, cell-based
Conditions: J774, 24 h
Quick reference: pIC50 of the listed items.
Here pIC50 is given on a logarithmic scale as minus log10 of the concentration in mol/L.

Example results:
INSERT INTO assay_data (compound, tested_target, endpoint_result) VALUES
  ('COC(=O)[C@@]1(C)CC[C@]2(C)CC[C@]3(C)C(=CC[C@@H]4[C@@]5(C)Cc6cnoc6C(C)(C)[C@@H]5CC[C@]43C)[C@@H]2C1', 'J774', 4.91),
  ('COc1ccc2c(c1)c(CC(=O)O)c(C)n2C(=O)c1ccc(Cl)cc1 [INDOMETHACIN]', 'J774', 4.53),
  ('COC(=O)[C@]1(C)C=C2C3=CC(=O)[C@@H]4[C@@]5(C)C/C(=C/O)C(=O)C(C)(C)[C@@H]5CC[C@@]4(C)[C@]3(C)CC[C@@]2(C)CC1', 'J774', 4.84),
  ('COC(=O)[C@@]1(C)CC[C@]2(C)CC[C@]3(C)[C@H](C(=O)C=C4[C@@]5(C)C=C(C#N)C(=O)C(C)(C)[C@@H]5CC[C@]43C)[C@@H]2C1', 'J774', 6.96),
  ('COC(=O)[C@@]1(C)CC[C@]2(C)CC[C@]3(C)C(=CC[C@@H]4[C@@]5(C)C/C(=C\O)C(=O)C(C)(C)[C@@H]5CC[C@]43C)[C@@H]2C1', 'J774', 4.98);

// returns reported pIC50 for input `COC(=O)[C@@]1(C)CC[C@]2(C)CC[C@]3(C)C(=CC[C@@H]4[C@@]5(C)CC(C#N)=C(O)C(C)(C)[C@@H]5CC[C@]43C)[C@@H]2C1`
5.10

// returns reported pIC50 for input `COC(=O)[C@]1(C)C=C2C3=CC(=O)[C@@H]4[C@@]5(C)CCC(=O)C(C)(C)[C@@H]5CC[C@@]4(C)[C@]3(C)CC[C@@]2(C)CC1`
4.79

// returns reported pIC50 for input `COC(=O)[C@]1(C)C=C2C3=CC(=O)[C@@H]4[C@@]5(C)C=C(C#N)C(=O)C(C)(C)[C@@H]5CC[C@@]4(C)[C@]3(C)CC[C@@]2(C)CC1`
5.25

* * *

Test system: J774
Test: Antiinflammatory activity in mouse J774 cells assessed as inhibition of LPS-induced NO production after 24 hrs by Griess method
Assay type: functional, cell-based
Details: J774, 24 h
readout_label: pIC50
Here pIC50 is given on a logarithmic scale as minus log10 of the concentration in mol/L.

Example results:
INSERT INTO assay_data (item_smiles, readout_label, endpoint_result) VALUES
  ('COC(=O)[C@@]1(C)CC[C@]2(C)CC[C@]3(C)C(=CC(=O)[C@@H]4[C@@]5(C)C=C(C#N)C(=O)C(C)(C)[C@@H]5CC[C@]43C)[C@@H]2C1', 'pIC50', 5.70),
  ('COC(=O)[C@@]1(C)CC[C@]2(C)CC[C@]3(C)[C@H](C(=O)C[C@@H]4[C@@]5(C)CC[C@H](O)C(C)(C)[C@@H]5CC[C@]43C)[C@@H]2C1', 'pIC50', 4.23),
  ('COC(=O)[C@@]1(C)CC[C@]2(C)CC[C@]3(C)[C@H](C(=O)C[C@@H]4[C@@]5(C)C=C(C#N)C(=O)C(C)(C)[C@@H]5CC[C@]43C)[C@@H]2C1', 'pIC50', 5.55);

# next compound below
// returns reported pIC50 for input `COC(=O)[C@@]1(C)CC[C@]2(C)CC[C@]3(C)[C@H](C(=O)C[C@@H]4[C@@]5(C)CCC(=O)C(C)(C)[C@@H]5CC[C@]43C)[C@@H]2C1`
4.63
